The reported measurements were obtained from PubChem BioAssay (NCI).

Tested on: CAKI-1 renal
Assay: NCI tumour cell line growth inhibition, 48 h; in the data active means GI50 below about 0.43 µM; inactive means the rest
Outcome field: choose from active, inactive

Field: outcome | Entry: COc1ccc(N2CCN(c3nc(-c4ccccn4)nc4sc5c(c34)CCCCCC5)CC2)cc1
inactive

Field: outcome | Entry: O=C(O)[C@@H](Cc1ccccc1)NS(=O)(=O)c1ccc(-c2ccccc2)cc1
inactive

Field: outcome | Entry: O=C(/C=C/c1cc2ccccc2[nH]c1=O)c1ccc(O)cc1
inactive

Field: outcome | Entry: OCC1OC(n2cnc3cc(Cl)c(Cl)cc32)C(O)C1O (centres undefined)
inactive

Field: outcome | Entry: CCCCCCCN(CCCCCCC)C(=N)c1ccc(OC)c2ccccc12
inactive

Field: outcome | Entry: O=C1NC(=O)/C(=C/c2ccc3nccc(-c4ccncc4)c3c2)S1
active

Field: outcome | Entry: Cc1ccc2c(c1)n([O-])c(C(F)(F)F)c(C(=O)c1ccco1)[n+]2=O
active

Field: outcome | Entry: COc1cccc(/C=C/C(=O)c2cc3c(N)c(C(=O)Nc4ccccc4)sc3nc2C)c1
inactive

Field: outcome | Entry: O=[N+]([O-])c1ccc(NC(c2ccccc2)c2ccc3cccnc3c2O)cc1 (centres undefined)
active
